- assay-notes: Cytotoxicity against African green monkey Vero cells assessed as cell viability at 0.5 to 64 ug/ml relative to control
- Format: toxicity, cell-based
- condition-info: chlorocebus sabaeus, at 0.5 to 64 µg/mL, dose 0.5-64 µg/ml, read-out: Activity
readout-type: viability (%)
Report as a plain number; the unit % is understood.

Given the entry Cc1nc(-c2ccc3ccccc3c2)sc1-c1ccnc(-c2ccccn2)n1 , report its measured viability.
100
